# TGT: MtMetAP1c (Mycobacterium tuberculosis, UniProt P9WK19)
# Construct: gene map
# Sequence (P9WK19 whole entry): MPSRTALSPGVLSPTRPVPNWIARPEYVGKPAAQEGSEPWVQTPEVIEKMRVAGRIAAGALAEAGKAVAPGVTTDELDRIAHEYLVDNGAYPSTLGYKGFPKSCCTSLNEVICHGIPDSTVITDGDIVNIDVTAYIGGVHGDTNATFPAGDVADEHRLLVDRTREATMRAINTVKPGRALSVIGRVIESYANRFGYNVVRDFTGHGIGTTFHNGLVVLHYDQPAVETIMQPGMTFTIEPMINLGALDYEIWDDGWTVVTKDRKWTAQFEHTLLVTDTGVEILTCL
# TEST: biochemical
# CONDITION DETAILS: read-out: IC50 (μM) / MtMetAP1c + 100 μM CoCl2
ENDPOINT: IC50 (µM)

1) Cc1nc(-c2ccccn2)nc(N(C)Cc2ccccc2)c1Cl = 11.8
